Entry source: patent EP4610269A1

target: human uPAR (uPAR-Fc) (Homo sapiens, UniProt Q03405); construct: comprising amino acids Leu23-Arg303 according to UniProt entry Q03405.1; purchased R&D Systems 10378-UK-100; assay: Surface plasmon resonance (SPR) assay, single cycle kinetics; format: binding; conditions: pKD category for uPAR SPR activity assay; uPAR-Fc on Protein A-Chip, 25°C; read-out: pKD CAT (converted)
Sequence (Q03405 23-303): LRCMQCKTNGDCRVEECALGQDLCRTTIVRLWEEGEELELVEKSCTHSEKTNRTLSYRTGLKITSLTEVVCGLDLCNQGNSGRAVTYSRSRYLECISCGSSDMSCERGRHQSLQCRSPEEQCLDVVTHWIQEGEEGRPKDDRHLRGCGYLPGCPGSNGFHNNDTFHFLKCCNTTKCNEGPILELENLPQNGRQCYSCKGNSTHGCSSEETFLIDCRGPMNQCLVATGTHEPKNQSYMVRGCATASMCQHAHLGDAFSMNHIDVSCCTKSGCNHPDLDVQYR
Where a SMILES comes first, the peptide text is derived from it. Bridges are numbered along the chain shown (N, C = ends). [ ]: non-standard residue; d: D form. The star is where a group is joined. DOTA = O=C(O)CN1CCN(CC(=O)O)CCN(CC(=O)*)CCN(CC(=O)O)CC1; Lys(Me3) = C[N+](C)(C)CCCC[C@H](N)C(=O)O; Ser(ΨH,HPro) = O=C(O)[C@@H]1COCN1; Hyp = O=C(O)[C@@H]1C[C@@H](O)CN1; Pentanoyl(4-Me) = CC(C)CCC(=O)*; Cit = NC(=O)NCCC[C@H](N)C(=O)O; Nle = CCCC[C@H](N)C(=O)O; Nva = CCC[C@H](N)C(=O)O; Pentanoyl = CCCCC(=O)*

molecule	Kd
CCCCC(=O)N[C@H]1CSSC[C@@H](C(N)=O)NC(=O)[C@H](CCC)NC(=O)[C@H]([C@@H](C)CC)NC(=O)[C@@H]2C[C@@H](O)CN2C(=O)[C@@H]2CCCN2C(=O)[C@H](Cc2ccccc2)NC(=O)[C@H](Cc2ccc(O)cc2)NC(=O)[C@H](CCCCNC(=O)CN2CCN(CC(=O)O)CCN(CC(=O)O)CCN(CC(=O)O)CC2)NC(=O)[C@H](CCCC[N+](C)(C)C)NC1=O [UPAR-153] (Pentanoyl-C[Lys(Me3)]K(DOTA)YFP[Hyp]I[Nva]C-NH2; disulfide 1-10)	< 1.58 nM
CCCC[C@@H]1NC(=O)[C@H](CCCNC(=N)N)NC(=O)[C@@H](NC(=O)[C@H](CC(C)C)NC(=O)[C@H](CC(=O)O)NC(C)=O)CSSC[C@@H](C(N)=O)NC(=O)[C@@H](CC(C)C)NC(=O)[C@H]([C@@H](C)CC)NC(=O)[C@H](C)NC(=O)[C@@H]2CCCN2C(=O)[C@H](Cc2ccccc2)NC(=O)[C@H](Cc2ccc(O)cc2)NC1=O [UPAR-137] (Ac-DLCR[Nle]YFPAI[dL]C-NH2; disulfide 3-12)	1.58 to 10 nM
CC[C@H](C)[C@@H]1NC(=O)[C@@H]2COCN2C(=O)[C@@H]2CCCN2C(=O)[C@H](Cc2ccccc2)NC(=O)[C@H](Cc2ccc(O)cc2)NC(=O)[C@H](CCC(N)=O)NC(=O)[C@H](CCCNC(N)=O)NC(=O)[C@@H](NC(=O)CCC(C)C)CSSC[C@@H](C(N)=O)NC(=O)[C@H](CC(C)C)NC1=O [UPAR-262] ({Pentanoyl(4-Me)}-C[Cit]QYFP[Ser(ΨH,HPro)]ILC-NH2; disulfide 1-10)	< 1.58 nM

---

Target or system uPAR-expressing HEC-265 human endometrial adenocarcinoma cells (Homo sapiens); recorded quantity pIC50.
pIC50: −log10 of the molar value. Where a SMILES comes first, the peptide text is derived from it. Bridges are numbered along the chain shown (N, C = ends). [ ]: non-standard residue; d: D form. The star is where a group is joined. DOTA = O=C(O)CN1CCN(CC(=O)O)CCN(CC(=O)*)CCN(CC(=O)O)CC1; Hyp = O=C(O)[C@@H]1C[C@@H](O)CN1; Cit = NC(=O)NCCC[C@H](N)C(=O)O; αMeL = CC(C)C[C@](C)(N)C(=O)O; NMeK = CN[C@@H](CCCCN)C(=O)O; Pen = CC(C)(S)[C@H](N)C(=O)O; Nva = CCC[C@H](N)C(=O)O; Pentanoyl = CCCCC(=O)*; Aib = CC(C)(N)C(=O)O

compound	pIC50
CCCCC(=O)N[C@@H]1C(=O)N[C@@H](CCCNC(N)=O)C(=O)N[C@@H](CCC(N)=O)C(=O)N[C@@H](Cc2ccc(O)cc2)C(=O)N[C@@H](Cc2ccccc2)C(=O)N2CCC[C@H]2C(=O)N2C[C@H](O)C[C@H]2C(=O)N[C@@H]([C@@H](C)CC)C(=O)N[C@@H](CCC)C(=O)N[C@H](C(N)=O)CSSC1(C)C [UPAR-397] (Pentanoyl-[Pen][Cit]QYFP[Hyp]I[Nva]C-NH2; disulfide 1-10)	≥ 8.00
CCCCC(=O)N[C@H]1CSSC[C@@H](C(N)=O)NC(=O)[C@](C)(CC(C)C)NC(=O)[C@H]([C@@H](C)CC)NC(=O)[C@@H]2C[C@@H](O)CN2C(=O)[C@@H]2CCCN2C(=O)[C@H](Cc2ccccc2)NC(=O)[C@H](Cc2ccc(O)cc2)NC(=O)[C@H](CCC(N)=O)NC(=O)[C@H](CCCNC(=N)N)NC1=O [UPAR-156] (Pentanoyl-CRQYFP[Hyp]I[αMeL]C-NH2; disulfide 1-10)	7.50 to 7.90
CCCCC(=O)N[C@H]1CSSC[C@@H](C(N)=O)NC(=O)[C@H](CCC)NC(=O)[C@H]([C@@H](C)CC)NC(=O)[C@H](CCCCN)N(C)C(=O)[C@@H]2CCCN2C(=O)[C@H](Cc2ccccc2)NC(=O)[C@H](Cc2ccc(O)cc2)NC(=O)[C@H](CCCCNC(=O)CN2CCN(CC(=O)O)CCN(CC(=O)O)CCN(CC(=O)O)CC2)NC(=O)[C@H](CCCNC(N)=O)NC1=O [UPAR-173] (Pentanoyl-C[Cit]K(DOTA)YFP[NMeK]I[Nva]C-NH2; disulfide 1-10)	≤ 6.90
CCCCC(=O)N[C@H]1CSSC[C@@H](C(N)=O)NC(=O)[C@H](CCC)NC(=O)[C@H]([C@@H](C)CC)NC(=O)[C@@H]2C[C@@H](O)CN2C(=O)C(C)(C)NC(=O)[C@H](Cc2ccccc2)NC(=O)[C@H](Cc2ccc(O)cc2)NC(=O)[C@H](CCCCNC(=O)CN2CCN(CC(=O)O)CCN(CC(=O)O)CCN(CC(=O)O)CC2)NC(=O)[C@H]([C@@H](C)O)NC1=O [UPAR-419] (Pentanoyl-CTK(DOTA)YF[Aib][Hyp]I[Nva]C-NH2; disulfide 1-10)	7.50 to 7.90
